The entries below come with measured activity coefficient values attached.
assayExplanation: activity coefficient (dimensionless); of the first substance listed, at infinite dilution; xn = mol fraction of the nth substance listed
details: 343.15 K; 101 kPa; Liquid; Chromatography; x1 = 0

Record excerpt, results attached:
Short answer for CC1CCCCC1 [methylcyclohexane] + CCCCn1cc[n+](C)c1.F[B-](F)(F)F : activity coefficient was 37.3

The recorded activity coefficient for entry CCCCCCCC [octane] + CCCCn1cc[n+](C)c1.F[B-](F)(F)F equals 111

Lab note: CCCCCCCCCC [decane] + CCCCn1cc[n+](C)c1.F[B-](F)(F)F gave activity coefficient of 279

Next:
For CCCCCCC [heptane] + CCCCn1cc[n+](C)c1.F[B-](F)(F)F the molecule record lists activity coefficient as 71.5

Entry C1=CCCCC1 [cyclohexene] + CCCCn1cc[n+](C)c1.F[B-](F)(F)F , activity coefficient reported as 11.9

molecule c1ccccc1 [benzene] + CCCCn1cc[n+](C)c1.F[B-](F)(F)F , activity coefficient observed: 1.83

The recorded activity coefficient for entry CCCCCC [hexane] + CCCCn1cc[n+](C)c1.F[B-](F)(F)F equals 47

Please fill in: activity coefficient reported for C1CCCCC1 [cyclohexane] + CCCCn1cc[n+](C)c1.F[B-](F)(F)F = 24.6

###

assayExplanation: activity coefficient (dimensionless); of the first substance listed, at infinite dilution; xn = mol fraction of the nth substance listed
details: 343.15 K; 101 kPa; Liquid; Chromatography; x1 = 0
// criterion not met strictly below 40 in activity coefficient; criterion met otherwise

Observe how each entry below is paired with its result.
Req: // inclusive: activity coefficient at least 40? input: Cc1ccc(C)cc1 [1,4-dimethylbenzene] + CCCCn1cc[n+](C)c1.F[B-](F)(F)F
Resp: criterion not met

Req: Given CCCCCCCCC [nonane] + CCCCn1cc[n+](C)c1.F[B-](F)(F)F , state whether its activity coefficient is at least 40.
Resp: criterion met

Req: Could you verify whether the entry CCc1ccccc1 [ethylbenzene] + CCCCn1cc[n+](C)c1.F[B-](F)(F)F shows activity coefficient of no less than 40?
Resp: criterion not met

Req: Please indicate if the recorded activity coefficient for Cc1ccccc1 [toluene] + CCCCn1cc[n+](C)c1.F[B-](F)(F)F meets or exceeds 40.
Resp: criterion not met

Req: Dear colleague, could you confirm whether C=Cc1ccccc1 [styrene] + CCCCn1cc[n+](C)c1.F[B-](F)(F)F has activity coefficient at or above 40?
Resp: criterion not met

Req: Test whether the compound CCCCC [pentane] + CCCCn1cc[n+](C)c1.F[B-](F)(F)F records activity coefficient of 40 or higher.
Resp: criterion not met

Req: Please tell me: is the compound Cc1ccccc1C [1,2-dimethylbenzene] + CCCCn1cc[n+](C)c1.F[B-](F)(F)F at or over 40 in terms of activity coefficient?
Resp: criterion not met

Req: Textbook exercise: given the entry Cc1cccc(C)c1 [1,3-dimethylbenzene] + CCCCn1cc[n+](C)c1.F[B-](F)(F)F , state whether its activity coefficient is greater than or equal to 40.
Resp: criterion not met

Next:
Req: Reported activity coefficient at or above 40? CC(C)CC(C)(C)C [2,2,4-trimethylpentane] + CCCCn1cc[n+](C)c1.F[B-](F)(F)F
Resp: criterion met

###

assayExplanation: activity coefficient (dimensionless); of the first substance listed, at infinite dilution; xn = mol fraction of the nth substance listed
details: 333.15 K; 101 kPa; Liquid; Chromatography; x1 = 0
activity coefficient values for the compounds below.
A bare number is all that is needed in reply.

According to the records, this compound CCCCCCCCCC [decane] + CCCCn1cc[n+](C)c1.F[B-](F)(F)F displays activity coefficient of 296

Looking up CCCCCC [hexane] + CCCCn1cc[n+](C)c1.F[B-](F)(F)F , I found its activity coefficient recorded as 50.5

Noted for CCCCCCC [heptane] + CCCCn1cc[n+](C)c1.F[B-](F)(F)F : its activity coefficient reads 78.9

Sample Cc1ccccc1C [1,2-dimethylbenzene] + CCCCn1cc[n+](C)c1.F[B-](F)(F)F ; activity coefficient observed: 4.16

Documented activity coefficient of CC(C)CC(C)(C)C [2,2,4-trimethylpentane] + CCCCn1cc[n+](C)c1.F[B-](F)(F)F : 79.5

***
Record C=Cc1ccccc1 [styrene] + CCCCn1cc[n+](C)c1.F[B-](F)(F)F . Reported activity coefficient: 2.41

The compound CCc1ccccc1 [ethylbenzene] + CCCCn1cc[n+](C)c1.F[B-](F)(F)F showed activity coefficient equal to 5.42

For c1ccccc1 [benzene] + CCCCn1cc[n+](C)c1.F[B-](F)(F)F the compound record lists activity coefficient as 1.8

Entry CCCCCCCC [octane] + CCCCn1cc[n+](C)c1.F[B-](F)(F)F ; activity coefficient = 119

So, C1=CCCCC1 [cyclohexene] + CCCCn1cc[n+](C)c1.F[B-](F)(F)F ? Its activity coefficient was 12.4

// sample CC1CCCCC1 [methylcyclohexane] + CCCCn1cc[n+](C)c1.F[B-](F)(F)F , its activity coefficient was 39.8

Notebook: CCCCCCCCC [nonane] + CCCCn1cc[n+](C)c1.F[B-](F)(F)F , activity coefficient read as 179

The measured activity coefficient associated with Cc1ccccc1 [toluene] + CCCCn1cc[n+](C)c1.F[B-](F)(F)F reads 2.99

Consider Cc1ccc(C)cc1 [1,4-dimethylbenzene] + CCCCn1cc[n+](C)c1.F[B-](F)(F)F . Its measured activity coefficient is 5.33

Notebook: C1CCCCC1 [cyclohexane] + CCCCn1cc[n+](C)c1.F[B-](F)(F)F , activity coefficient read as 26.9

The compound identified as Cc1cccc(C)c1 [1,3-dimethylbenzene] + CCCCn1cc[n+](C)c1.F[B-](F)(F)F registered its activity coefficient at 5.23

activity coefficient recorded for this compound, CCCCC [pentane] + CCCCn1cc[n+](C)c1.F[B-](F)(F)F , is 36.3

###

assayExplanation: activity coefficient (dimensionless); of the first substance listed, at infinite dilution; xn = mol fraction of the nth substance listed
details: 323.15 K; 101 kPa; Liquid; Chromatography; x1 = 0
Rule: activity coefficient below 10 gives fulfilled. Equal to or above 10 gives not fulfilled.

Take a look at these entries with their results.
Req: Item CCCCCC [hexane] + CCCCn1cc[n+](C)c1.F[B-](F)(F)F : activity coefficient beneath 10, strictly?
Resp: not fulfilled

Req: Is activity coefficient of CCCCCCC [heptane] + CCCCn1cc[n+](C)c1.F[B-](F)(F)F strictly below 10?
Resp: not fulfilled

Req: Lab note: confirm whether the reported activity coefficient for this compound is below 10, equality not counting. compound: CC1CCCCC1 [methylcyclohexane] + CCCCn1cc[n+](C)c1.F[B-](F)(F)F
Resp: not fulfilled

Req: Find out if reported activity coefficient for CCCCCCCC [octane] + CCCCn1cc[n+](C)c1.F[B-](F)(F)F is less than 10
Resp: not fulfilled

Req: Strictly below 10 in activity coefficient? C=Cc1ccccc1 [styrene] + CCCCn1cc[n+](C)c1.F[B-](F)(F)F
Resp: fulfilled

More entries:
Req: Does the reported activity coefficient of the following compound sit strictly below 10? CC(C)CC(C)(C)C [2,2,4-trimethylpentane] + CCCCn1cc[n+](C)c1.F[B-](F)(F)F
Resp: not fulfilled

Req: Say whether its activity coefficient is strictly beneath 10. Entry: Cc1cccc(C)c1 [1,3-dimethylbenzene] + CCCCn1cc[n+](C)c1.F[B-](F)(F)F
Resp: fulfilled

###

assayExplanation: activity coefficient (dimensionless); of the first substance listed, at infinite dilution; xn = mol fraction of the nth substance listed
details: 303.15 K; 101 kPa; Liquid; Chromatography; x1 = 0
quantityKind: activity coefficient
Quick one: just the number, no unit, thanks!

response.value for CCCCCC [hexane] + CCCCn1cc[n+](C)c1.F[B-](F)(F)F (field: activity coefficient) = 60.8

activity coefficient recorded for this compound, CCCCCCC [heptane] + CCCCn1cc[n+](C)c1.F[B-](F)(F)F , is 92.5

activity coefficient recorded for this compound, CC1CCCCC1 [methylcyclohexane] + CCCCn1cc[n+](C)c1.F[B-](F)(F)F , is 48.7

Memo: C=Cc1ccccc1 [styrene] + CCCCn1cc[n+](C)c1.F[B-](F)(F)F , reported activity coefficient: 2.29

C1=CCCCC1 [cyclohexene] + CCCCn1cc[n+](C)c1.F[B-](F)(F)F yielded activity coefficient of 14.1

The reported value for Cc1ccc(C)cc1 [1,4-dimethylbenzene] + CCCCn1cc[n+](C)c1.F[B-](F)(F)F in terms of activity coefficient is 4.97

Noted for CCCCCCCCCC [decane] + CCCCn1cc[n+](C)c1.F[B-](F)(F)F : its activity coefficient reads 414

Let us move to another entry and its activity coefficient.
Reported activity coefficient for Cc1ccccc1C [1,2-dimethylbenzene] + CCCCn1cc[n+](C)c1.F[B-](F)(F)F was 4.2
